Assay: reduction of polyQ htt aggregates in cells – imaging, exon1htt(103Q)mCFP cells, high-content imaging, primary screen (AID 483);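 note: compound exposure lasted 3 days before fixation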
Conditions: exon1htt(103Q)mCFP cell line, aggregate imaging, at 2 µM; hits give high values
Measured endpoint: inhibition of aggregation (%)
Kindly answer with a numeric value in %, unit omitted.

* CCN(CC)C(=O)Cn1ncc2c1-c1ccccc1OC2 | -64.7

# inhibition of aggregation lookup, item CC1CCN(S(=O)(=O)c2ccc(Br)s2)CC1
-1.9

# inhibition of aggregation lookup, item CCOC(=O)Cn1c(N2CCOCC2)nc2c1c(=O)[nH]c(=O)n2C
-18.2

# inhibition of aggregation lookup, item CC12CCC(C(=O)N3CCN(C(=O)C45CCC(C)(C(=O)O4)C5(C)C)CC3)(OC1=O)C2(C)C
-6.1

# inhibition of aggregation lookup, item CN1C(=S)SC(C)(NO)C1(C)C (centres undefined)
7.3

# inhibition of aggregation lookup, item O=C(NCc1cccs1)C(Cc1ccccc1)NS(=O)(=O)c1cccs1 (centres undefined)
0

# inhibition of aggregation lookup, item COc1cc2c(cc1OC)C(/C(C#N)=N\O)=NC(C)(C)C2
2.8

# inhibition of aggregation lookup, item CCOc1ccccc1C1CC(c2ccc(Br)cc2)Nc2nc(N)nn21 (centres undefined)
19.2

# inhibition of aggregation lookup, item Cc1noc(C)c1S(=O)(=O)N1CCC(C(=O)N2CCN(Cc3ccc4c(c3)OCO4)CC2)CC1
8.9

# inhibition of aggregation lookup, item COc1ccccc1-c1nc(SCc2ccccn2)n[nH]1
2.6

# inhibition of aggregation lookup, item COc1ccccc1-c1cc2nc(C)c(CCC(=O)NCc3ccco3)c(C)n2n1
-15.4

====

Target: Voltage-gated potassium channel subunit beta-2 (Rattus norvegicus)
Experiment: inhibitors of rat Kvbeta2 reductase activity – biochemical, NADPH fluorescence, primary screen (AID 622);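 note: slope of raw intensity against log time taken from 70 to 1610 s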
Details: recombinant KvBeta, 4-cyanobenzaldehyde reduction, at 10 µM
Active and inactive are the calls of the source.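 The calls were made as follows: active = fluorescence slope higher than the sample average by over 3 SD (cut at about -0.22 in these data, passing the limit was not always enough); inactive = the rest.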
Answer with one of the outcomes given here: active, inactive

Some solved entries appear below for comparison.
* O=C(c1ccc(=O)[nH]c1)N(Cc1ccco1)C1(C(=O)NC2CCCC2)CCCCC1 | inactive
* CCN(C(=O)c1cc2cc3ccc(C)cc3nc2o1)c1ccc(OC)cc1 | inactive

Record request — test call for CCCCc1cc(=O)oc2c(CN3CCCC3)c(O)c(Cl)cc12
active

Record request — test call for Cc1[nH]c(=O)[nH]c(=O)c1S(=O)(=O)N1c2ccc(F)cc2CCC1C (stereo not drawn)
inactive

Record request — test call for O=C(c1ccccc1)c1ccc(N2CCNCC2)cc1
inactive

Record request — test call for COc1ccc(CC(=O)Nc2ccc(-c3nnc(-c4ccc(C)cc4)o3)cc2)cc1
inactive

Record request — test call for O=C(Nc1ccc2c(c1)OCO2)c1nn(-c2ccccc2)c(=O)c2ccccc12
inactive

Record request — test call for Cc1nc(C)n(C(C)CC(=O)O)n1 (stereo not drawn)
inactive

Record request — test call for Cc1ccc(Cn2ncc3c(NCCCN4CCOCC4)ncnc32)cc1
inactive

Record request — test call for Cc1ccc(S(=O)(=O)N2CCN(C(=O)N3CCOCC3)C2C)cc1 (stereo not drawn)
inactive

Record request — test call for O=C(Nc1ccc(O)cc1)C1CCCN1S(=O)(=O)c1ccc(F)cc1 (stereo not drawn)
inactive

Record request — test call for O=C1CCN(C(=O)c2ccccc2)C2CCCCC12 (stereo not drawn)
inactive

Record request — test call for CCOC(=O)c1c(NC(=O)OC)sc2c1CCC2
inactive

The origin of these recorded values is PubChem BioAssay.
